Attribution: the supplement of paper PMC10065799

- TARGET SYSTEM: Jak2 (UniProt O60674)
- Sequence (O60674 whole entry, looked up): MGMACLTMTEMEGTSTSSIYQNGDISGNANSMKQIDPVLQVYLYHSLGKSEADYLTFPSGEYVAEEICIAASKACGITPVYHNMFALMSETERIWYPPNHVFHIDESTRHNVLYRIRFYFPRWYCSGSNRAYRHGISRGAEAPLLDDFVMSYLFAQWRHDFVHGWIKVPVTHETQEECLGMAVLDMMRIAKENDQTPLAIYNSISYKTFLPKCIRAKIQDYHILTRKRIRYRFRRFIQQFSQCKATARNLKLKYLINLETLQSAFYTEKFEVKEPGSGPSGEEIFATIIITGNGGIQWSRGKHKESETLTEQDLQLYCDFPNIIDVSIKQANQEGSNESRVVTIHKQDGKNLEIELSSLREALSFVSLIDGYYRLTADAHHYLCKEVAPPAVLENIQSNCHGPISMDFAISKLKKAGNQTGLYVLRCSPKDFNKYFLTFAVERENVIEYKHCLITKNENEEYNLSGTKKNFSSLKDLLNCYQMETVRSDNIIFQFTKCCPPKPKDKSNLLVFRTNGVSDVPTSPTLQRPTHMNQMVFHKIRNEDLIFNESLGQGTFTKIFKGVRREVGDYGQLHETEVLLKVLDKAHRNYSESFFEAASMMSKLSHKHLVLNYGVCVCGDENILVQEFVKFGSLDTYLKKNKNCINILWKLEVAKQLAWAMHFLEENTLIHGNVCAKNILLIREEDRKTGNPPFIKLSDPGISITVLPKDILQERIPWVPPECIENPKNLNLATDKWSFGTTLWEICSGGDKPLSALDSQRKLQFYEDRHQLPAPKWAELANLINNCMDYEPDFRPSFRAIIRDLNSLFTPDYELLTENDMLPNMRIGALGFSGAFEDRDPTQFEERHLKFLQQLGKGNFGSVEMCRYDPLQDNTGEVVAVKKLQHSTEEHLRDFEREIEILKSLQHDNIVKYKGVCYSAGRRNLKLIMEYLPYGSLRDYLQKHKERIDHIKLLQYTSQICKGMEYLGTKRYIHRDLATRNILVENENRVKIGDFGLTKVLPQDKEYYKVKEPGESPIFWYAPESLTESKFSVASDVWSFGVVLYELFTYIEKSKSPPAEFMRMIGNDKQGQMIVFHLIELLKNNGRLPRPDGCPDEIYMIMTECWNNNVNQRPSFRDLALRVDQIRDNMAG
- ASSAY NAME: phosphorylation enrichment, bacterial display (enrichment ratio); higher = better substrate or ligand; peptides without Tyr show the background;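 note: 11-residue human phosphosite peptides and single-mutation variants displayed on the E. coli surface, counted by deep sequencing, each peptide's frequency after selection divided by its frequency in the unselected input library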;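 note: frequency after pTyr selection over input frequency; kinase dosed for 20-30% of maximal phosphorylation in three min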

INPUT SEQUENCE: FSNPAYFVLEG [INPPL1_Y986_N982S_YF]
phosphorylation enrichment: 3.86
//
INPUT SEQUENCE: TSIGNYYKPWF [DHCR24_Y299_N294T]
phosphorylation enrichment: 11.5
//
INPUT SEQUENCE: SLDHPFEKPRK [INAVA_Y333_Y333F]
phosphorylation enrichment: 0.663
//
INPUT SEQUENCE: KGELCYMHSRV [ABCD1_Y281_R280C]
phosphorylation enrichment: 0.568
//
INPUT SEQUENCE: AVDMTYDGHPV [FLNB_Y1020_V1018M]
phosphorylation enrichment: 0.765
//
INPUT SEQUENCE: KFWREYILSLE [GPC3_Y299_YF]
phosphorylation enrichment: 0.997
//
INPUT SEQUENCE: SSFSRYIMMPN [LEF1_Y114_G113R_YF]
phosphorylation enrichment: 0.812
//
INPUT SEQUENCE: ELPEKYSQNIC [PKP2_Y626_Y631C]
phosphorylation enrichment: 1.18
//
INPUT SEQUENCE: QLAPQYTFTQG [FLNA_Y1761_A1764T_YF]
phosphorylation enrichment: 1.21
//
INPUT SEQUENCE: FLGEEYVKAVG [TF_Y674_YF]
phosphorylation enrichment: 0.853
//
INPUT SEQUENCE: LGRKLYSIAAP [ABHD12_Y345]
phosphorylation enrichment: 2.38
//
INPUT SEQUENCE: PSARTYCFKQE [KLHDC9_Y175_YF]
phosphorylation enrichment: 0.624
//
INPUT SEQUENCE: VYLGAYDRFLP [SLC22A5_Y486]
phosphorylation enrichment: 0.74
//
INPUT SEQUENCE: QTWKTYVRHQQ [SFI1_Y164_Q167H]
phosphorylation enrichment: 1.3

----------
- TARGET SYSTEM: Hck (UniProt P08631)
- Sequence (P08631 whole entry, looked up): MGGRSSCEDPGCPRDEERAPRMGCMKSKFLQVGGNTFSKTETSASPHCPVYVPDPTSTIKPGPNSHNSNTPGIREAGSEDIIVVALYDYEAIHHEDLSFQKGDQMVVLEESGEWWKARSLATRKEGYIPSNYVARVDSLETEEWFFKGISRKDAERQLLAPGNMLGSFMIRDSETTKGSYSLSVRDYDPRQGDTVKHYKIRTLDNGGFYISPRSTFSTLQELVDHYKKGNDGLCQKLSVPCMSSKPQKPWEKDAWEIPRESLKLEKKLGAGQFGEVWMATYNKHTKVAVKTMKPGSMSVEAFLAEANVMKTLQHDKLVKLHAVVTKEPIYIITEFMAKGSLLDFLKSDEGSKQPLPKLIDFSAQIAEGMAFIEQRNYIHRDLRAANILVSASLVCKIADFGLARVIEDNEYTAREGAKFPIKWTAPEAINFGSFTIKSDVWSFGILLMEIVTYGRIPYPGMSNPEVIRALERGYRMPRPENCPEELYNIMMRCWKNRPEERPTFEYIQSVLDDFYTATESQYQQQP
- ASSAY NAME: phosphorylation enrichment, bacterial display (enrichment ratio); higher = better substrate or ligand; peptides without Tyr show the background
Given measured phosphorylation enrichment, output True if it is greater than or equal to 0.5 and False if not.

INPUT SEQUENCE: RRGMPYGGHGD [TGM1_Y312_R315H]
ANSWER LABEL: True
//
INPUT SEQUENCE: TYGVLYKARNK [CDK2_Y19_V18L]
ANSWER LABEL: True
//
INPUT SEQUENCE: LQKPMYEVQWK [KIT_Y553]
ANSWER LABEL: True
//
INPUT SEQUENCE: KAALSYVSEIG [BPIFB2_Y36]
ANSWER LABEL: False
//
INPUT SEQUENCE: GKGGSYSQAAS [HLA-B_Y344_C349S]
ANSWER LABEL: False
//
INPUT SEQUENCE: RLNCIYYKDQT [RS1_Y165_W163C]
ANSWER LABEL: True
//
INPUT SEQUENCE: KFSNQYKATIG [RAB7A_Y37]
ANSWER LABEL: False
//
INPUT SEQUENCE: MKDLTYSSLCF [ALOX5_Y446_A447S]
ANSWER LABEL: True
//
INPUT SEQUENCE: FTDPFYDFEIE [ZC3H18_Y372_A368T_YF]
ANSWER LABEL: True
//
INPUT SEQUENCE: KTSGNYLAVTG [WDR19_Y28]
ANSWER LABEL: False
//
INPUT SEQUENCE: HAEERYGKELV [PSTPIP1_Y53_Q48H]
ANSWER LABEL: True
//
INPUT SEQUENCE: SAVTGYRVDVI [FN1_Y937]
ANSWER LABEL: False
//
INPUT SEQUENCE: NGLVACKDGKL [PMM2_Y76_Y76C]
ANSWER LABEL: False
//
INPUT SEQUENCE: QGIFGYHHFMQ [UFSP2_Y287_YF]
ANSWER LABEL: True
//
INPUT SEQUENCE: ECKLLYSRKEG [PTPN11_Y263]
ANSWER LABEL: True
//
INPUT SEQUENCE: YSGDCYRIQGR [DDR2_Y741_Y740C]
ANSWER LABEL: True
//
INPUT SEQUENCE: YPPDGYSRHYE [CTNND1_Y213]
ANSWER LABEL: False
//
INPUT SEQUENCE: SGVVPYEPPEV [TP53_Y220_V216G]
ANSWER LABEL: True
//
INPUT SEQUENCE: LLANAYIFDVQ [L1CAM_Y418_V421D_YF]
ANSWER LABEL: True
//
INPUT SEQUENCE: LENSTYQYIHV [CRB1_Y760_R764H]
ANSWER LABEL: True
